Where these numbers come from: patent US12319672B2

assay_system: human Gal-1 (hGal-1)
Sequence (P09382 2-135 limits assumed): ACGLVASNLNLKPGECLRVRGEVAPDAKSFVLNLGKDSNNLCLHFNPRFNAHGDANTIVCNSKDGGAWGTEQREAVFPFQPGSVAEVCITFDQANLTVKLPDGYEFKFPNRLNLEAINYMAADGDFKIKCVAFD
experiment_description: Competitive binding assay: binding of biotinylated hGal-1 to microplate-adsorbed asialofetuin (ASF)
condition_description: Activities on hGal-1; mean values of several measurements
parameter_measured: IC50 (nM)

Here are 5 molecules together with their reported answers.
[
  {
    "molecule": "O=C(O)[C@H]1CC[C@](O)(c2cc(C[C@H]3O[C@H](CO)[C@H](O)[C@H](n4cc(-c5cc(F)c(F)c(F)c5)nn4)[C@H]3O)no2)CC1 [Example 2.11]",
    "unit_abbrev": "nM",
    "IC50": 13700
  },
  {
    "molecule": "CO[C@@H]1[C@@H](n2cc(-c3cc(F)c(F)c(F)c3)nn2)[C@@H](O)[C@@H](CO)O[C@@H]1Cc1cc(C)no1 [Ex 1.306]",
    "unit_abbrev": "nM",
    "IC50": 6190
  },
  {
    "molecule": "OC[C@H]1O[C@H](CC2CC(c3ccc4[nH]cnc4c3)=NO2)[C@H](O)[C@@H](n2cc(-c3cc(F)c(F)c(F)c3)nn2)[C@H]1O (stereo partly drawn) [Ex 1.26]",
    "unit_abbrev": "nM",
    "IC50": 17500
  },
  {
    "molecule": "OC[C@H]1O[C@H](CC2CC(c3ccncc3)=NO2)[C@H](O)[C@@H](n2cc(-c3cc(F)c(F)c(F)c3)nn2)[C@H]1O (stereo partly drawn) [Ex 1.16]",
    "unit_abbrev": "nM",
    "IC50": 6620
  },
  {
    "molecule": "Cc1ncsc1C1CC(C[C@H]2O[C@H](CO)[C@H](O)[C@H](n3cc(-c4cc(F)c(F)c(F)c4)nn3)[C@H]2O)=NO1 (stereo partly drawn) [Ex 1.37]",
    "unit_abbrev": "nM",
    "IC50": 7700
  }
]

1: O=c1cc(C2=NOC(C[C@H]3O[C@H](CO)[C@H](O)[C@H](n4cc(-c5cc(F)c(F)c(F)c5)nn4)[C@H]3O)C2)cc[nH]1 (mixture of isomers) [Example 2.03]
2: CO[C@@H]1[C@@H](n2cc(-c3cc(F)c(F)c(F)c3)nn2)[C@@H](O)[C@@H](CO)O[C@@H]1Cc1cn(C2CCN(S(C)(=O)=O)CC2)nn1 [Example 4.07]
Ask: Just curious, which one has the larger IC50 reading, 1 or 2 ? Pick one; state its label.
Result: 1
(1: 550 nM, 2: 100 nM)

###

Reported IC50, human Gal-3 (hGal-3) (Homo sapiens (Human), UniProt P17931).
parameter_measured: IC50 (nM)

[
  {
    "compound": "CO[C@@H]1[C@@H](n2cc(-c3ccc(C)c(F)c3F)nn2)[C@@H](O)[C@@H](CO)O[C@@H]1Cc1cc(C2CCCCC2)on1",
    "data_value": 180
  },
  {
    "compound": "CO[C@@H]1[C@@H](n2cc(-c3ccc(F)c(F)c3F)nn2)[C@@H](O)[C@@H](CO)O[C@@H]1Cc1cc(C(C)(CO)CCl)no1 (stereo partly drawn)",
    "data_value": 70
  },
  {
    "compound": "CO[C@@H]1[C@@H](n2cc(-c3cc(F)c(F)c(F)c3)nn2)[C@@H](O)[C@@H](CO)O[C@@H]1Cc1cc(C2CCN(C(=O)CC(C)C)CC2)on1",
    "data_value": 41
  },
  {
    "compound": "OC[C@H]1O[C@H](Cc2cc(C3CCNCC3)on2)[C@H](OCC(F)F)[C@@H](n2cc(-c3cc(F)c(F)c(F)c3)nn2)[C@H]1O",
    "data_value": 200
  },
  {
    "compound": "CO[C@@H]1[C@@H](n2cc(-c3cc(F)c(F)c(F)c3)nn2)[C@@H](O)[C@@H](CO)O[C@@H]1Cc1cc(C2CCCC2)no1",
    "data_value": 110
  }
]

P: COc1cc(C2=NOC(C[C@H]3O[C@H](CO)[C@H](O)[C@H](n4cc(-c5cc(F)c(F)c(F)c5)nn4)[C@H]3O)C2)ccn1 (stereo partly drawn)
Q: CO[C@@H]1[C@@H](n2cc(-c3cc(F)c(F)c(F)c3)nn2)[C@@H](O)[C@@H](CO)O[C@@H]1C[C@@H]1CC(C2CCN(S(=O)(=O)C(C)C)CC2)=NO1
Ask: Select one. Lower IC50: P or Q Pick one; state its label.
Result: Q

###

Reported pIC50, human Gal-3 (hGal-3) (Homo sapiens (Human)).
pIC50: −log10 of the molar value.
parameter_measured: pIC50

[
  {
    "compound": "CO[C@@H]1[C@@H](n2cc(-c3cc(F)c(C)c(F)c3)nn2)[C@@H](O)[C@@H](CO)O[C@@H]1CC1CC(C2CCN(C(=O)OC(C)(C)C)CC2)=NO1 (stereo partly shown)",
    "pIC50": 7.00
  }
]

A: CO[C@@H]1[C@@H](n2cc(-c3cc(F)c(F)c(F)c3)nn2)[C@@H](O)[C@@H](CO)O[C@@H]1Cc1cc(C2(O)CCC(F)(F)CC2)on1
B: CC(=O)N1CCC(C2=NO[C@H](C[C@H]3O[C@H](CO)[C@H](O)[C@H](n4cc(-c5cc(F)c(F)c(F)c5)nn4)[C@H]3O)C2)CC1
Ask: Select one. Lower pIC50: A or B Pick one; state its label.
Result: A
(A: 6.40, B: 6.82)

a: CO[C@@H]1[C@@H](n2cc(-c3ccc(F)c(F)c3F)nn2)[C@@H](O)[C@@H](CO)O[C@@H]1Cc1cc(C2(O)CCCCC2)on1
b: CO[C@@H]1[C@@H](n2cc(-c3cc(F)c(F)c(F)c3)nn2)[C@@H](O)[C@@H](CO)O[C@@H]1Cc1cc(C2CCN(C(=O)[C@@H](N)C(C)C)CC2)on1
Ask: Select one. Lower pIC50: a or b Pick one; state its label.
Result: b

A: CO[C@@H]1[C@@H](n2cc(-c3cc(F)c(F)c(F)c3)nn2)[C@@H](O)[C@@H](CO)O[C@@H]1Cc1cc(C(C)C)no1
B: CO[C@@H]1[C@@H](n2cc(-c3cc(F)c(C#N)c(F)c3)nn2)[C@@H](O)[C@@H](CO)O[C@@H]1CC1CC(C2CCN(C(=O)OC(C)(C)C)CC2)=NO1 (stereo partly shown)
C: CO[C@@H]1[C@@H](n2cc(-c3cc(F)c(Cl)c(F)c3)nn2)[C@@H](O)[C@@H](CO)O[C@@H]1Cc1cc(C2CCCCC2)on1
D: O=C(O)[C@H]1CC[C@](O)(c2cc(C[C@H]3O[C@H](CO)[C@H](O)[C@H](n4cc(-c5cc(F)c(F)c(F)c5)nn4)[C@H]3O)no2)CC1
Ask: Order the records, beginning with the lowest pIC50 and ending with the highest. List the labels, following the order given in the request.
Result: D, C, B, A
(D: 5.60, C: 6.06, B: 6.42, A: 6.74)

###

assay_system: human Gal-1 (hGal-1)
experiment_description: Competitive binding assay: binding of biotinylated hGal-1 to microplate-adsorbed asialofetuin (ASF)
condition_description: Activities on hGal-1; mean values of several measurements
parameter_measured: IC50 (µM)

Here are 4 compounds together with their reported answers.
[
  {
    "compound": "CCOC(C)(C)c1cc(C[C@H]2O[C@H](CO)[C@H](O)[C@H](n3cc(-c4cc(F)c(F)c(F)c4)nn3)[C@H]2OC)on1",
    "IC50, µM": 2.74
  },
  {
    "compound": "CO[C@@H]1[C@@H](n2cc(-c3cc(F)c(F)c(F)c3)nn2)[C@@H](O)[C@@H](CO)O[C@@H]1C[C@@H]1CC(C2CCNCC2)=NO1",
    "IC50, µM": 2.09
  },
  {
    "compound": "CO[C@@H]1[C@@H](n2cc(-c3cc(F)cc(Cl)c3)nn2)[C@@H](O)[C@@H](CO)O[C@@H]1Cc1cc(C2CCCCC2)on1",
    "IC50, µM": 10.3
  },
  {
    "compound": "CC(C)(O)C1CC(C[C@H]2O[C@H](CO)[C@H](O)[C@H](n3cc(-c4cc(F)c(F)c(F)c4)nn3)[C@H]2O)=NO1 (stereo partly drawn)",
    "IC50, µM": 9.94
  }
]

a: CC(=O)N1CCC([C@@H]2CC(C[C@H]3O[C@H](CO)[C@H](O)[C@H](n4cc(-c5cc(F)c(F)c(F)c5)nn4)[C@H]3O)=NO2)CC1
b: OC[C@H]1O[C@H](Cc2cc(C3CCNCC3)on2)[C@H](O)[C@@H](n2cc(-c3cc(F)c(F)c(F)c3)nn2)[C@H]1O
Ask: Select one. Lower IC50: a or b Pick one; state its label.
Result: a
